measurement notes: yeast NALP1 reporter signal suppression – S. cerevisiae, luminescence, single concentration, NALP1 inhibitor project, confirmation (AID 488841);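 further: plate controls were DMSO in galactose medium for no effect and cells in plain SD medium for full effect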
conditions: S. cerevisiae NALP1/ASC/Caspase-1 reporter, beta-gal luminescence; at 10 µM; stronger effect = higher value
In all, about 1,400 compounds went through this assay and about 380 (27%) were called active. This is one part of the list.
Param threshold (30%) applies to inhibition; output true (1) when value >= threshold, false (0) when value < threshold.

Below, 5 compounds whose answers are already recorded.
CCOc1ccc(N=c2oc3cc(O)ccc3cc2C(=O)NCC2CCCO2)cc1 (stereo unspecified)
false (0)
CCOc1ccccc1N/C=C(\C#N)c1nc2ccccc2n1C
false (0)
Cn1c(=O)c([N+](=O)[O-])c(-n2cnc3ccccc32)c2ccccc21
true (1)
CCOc1ccc(C(=O)Nc2ccc(-c3nc4ccccc4[nH]3)cc2)cc1[N+](=O)[O-]
false (0)
CSc1ccc(C(=O)C2CCCN(C(=O)c3ccc4c(c3)no[n+]4[O-])C2)cc1 (stereo unspecified)
false (0)

Now look at this one.
(Q) Threshold query (inhibition >= 30%) on "COc1ccc2nc3oc(C(=O)Nc4ccc(OC)c(OC)c4)cc3cc2c1"
(A) false (0)

* * *

measurement notes: yeast NALP1 reporter signal suppression – S. cerevisiae, luminescence, single concentration, NALP1 inhibitor project, confirmation (AID 488841);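 further: plate controls were DMSO in galactose medium for no effect and cells in plain SD medium for full effect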
conditions: S. cerevisiae NALP1/ASC/Caspase-1 reporter, beta-gal luminescence; at 10 µM
The campaign covered roughly 1,400 compounds. About 380 (27%) were called active.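 How the source made its calls: active means mean inhibition above 50% across duplicate retests at 10 µM; inactive means the rest.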 The list shows a part of the results.
Outcome (select one): t for active, f for inactive

Below, 5 compounds whose answers are already recorded.
O=C(c1ccccc1-c1ccccc1)N1CCN(c2ccccn2)CC1
f
Cc1ccc(/C(N)=N/OC(=O)c2cccs2)cc1
t
COc1cc(/C=C/C(=O)c2ccc(Cl)s2)cc(OC)c1O
t
CCCCCCCCCCCCCCCC[n+]1ccc(C(N)=O)cc1
t
O=c1c(Br)c(N2CCCC2)cnn1-c1ccccc1
f

(Q) GET /call?item= "Cn1cc(S(=O)(=O)N2CCN(c3cccc(C(F)(F)F)c3)CC2)c(=O)n(C)c1=O" returns the recorded outcome of this test.
(A) f

(Q) GET /call?item= "CCOC(=O)c1cc(-c2ccccc2)n(CCC(=O)N2CCN(c3ccccn3)CC2)c1C" returns the recorded outcome of this test.
(A) f

* * *

measurement notes: yeast NALP1 reporter signal suppression – S. cerevisiae, luminescence, single concentration, NALP1 inhibitor project, confirmation (AID 488841);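 further: plate controls were DMSO in galactose medium for no effect and cells in plain SD medium for full effect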
conditions: S. cerevisiae NALP1/ASC/Caspase-1 reporter, beta-gal luminescence; at 10 µM
In all, about 1,400 compounds went through this assay and about 380 (27%) were called active.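 The calls were made as follows: active = mean inhibition above 50% across duplicate retests at 10 µM; inactive = the rest.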 The list shows a part of the results.
Outcome (select one): T = active, F = inactive

Below, 3 compounds whose answers are already recorded.
Cc1cc(/C=C2/SC(=S)N(c3ccc([N+](=O)[O-])cc3)C2=O)c(C)n1-c1cccnc1
F
CCOC(=O)c1ccc(NC(=O)c2nccnc2C(=O)O)cc1
F
CCc1cc(OCCCCNCc2ccccc2)ccc1Cl
F

(Q) GET /call?item= "CCN1CCN(Cc2cccc(Oc3ccccc3)c2)CC1" returns the recorded outcome of this test.
(A) F

(Q) GET /call?item= "COc1ccc(Nc2ncccc2C(=O)NCc2ccccc2)cc1" returns the recorded outcome of this test.
(A) F

(Q) GET /call?item= "CCN(c1cccc(C)c1)S(=O)(=O)c1cccc(C(=O)O)c1" returns the recorded outcome of this test.
(A) F

(Q) GET /call?item= O=C(NCc1ccco1)c1cnn2c1NC(c1ccc(Br)cc1)CC2C(F)(F)F (stereo not given) returns the recorded outcome of this test.
(A) T

(Q) GET /call?item= O=C(Nc1cc(N2CCOCC2)ncn1)NC1(C(F)(F)F)Oc2ccc(Cl)cc2O1 (stereo not given) returns the recorded outcome of this test.
(A) F

(Q) GET /call?item= "O=c1c(O)c(-c2cccs2)oc2ccccc12" returns the recorded outcome of this test.
(A) T

(Q) GET /call?item= "Cc1noc2ncc(C(=O)c3cc(F)ccc3O)cc12" returns the recorded outcome of this test.
(A) F

(Q) GET /call?item= "COc1ccc(/C=C\c2onc(C)c2S(=O)(=O)N2CCC(C(=O)NCc3ccco3)CC2)cc1" returns the recorded outcome of this test.
(A) F

(Q) GET /call?item= CC(NC(=O)/C(C#N)=C/c1ccc([N+](=O)[O-])o1)c1ccccc1 (stereo not given) returns the recorded outcome of this test.
(A) T
